Data origin: the DeepSol protein solubility set

Assay: soluble on expression in E. coli; label from the status in PepcDB or PDB records

- seq: "MSLSEAGHKFLAKLGKKRLRPGGKRATDWLIAEGGFSKEKRILEVACNRGTTAIELAQRFGCKITAVDMDAQALEVAKKSAGTAGVAHLISFERANAMKLPYQDASFDIVINEAMLTMQADQAKKKCVMEYLRVLKPGGLLLTHDVLLKEAKESIRQELSQAIHVNVGPLTQDGWEQVMIESGYCDVKALTGEMTLMKLSGMIYDEGLLGTLKICVNACKKENRKQFLTMYKMFAKNKQKLGFIAMASYKSSKREGHHHHHH"
  soluble on expression in E. coli: "not soluble"
- seq: "MGSDKIHHHHHHMNRDYVCSEMFCMGTIISQKIYGEDKKEVLFKVENEMRRLEKAMNFYSSSSEISKLNKFGFENEIKLSKDVYHVIKNAKNFSKKTLGAFDISLAPIIKLWGIFCENERVPSVKEIEKNLSLVNYKNLVLNDYKRTVKFLVEDMKVDLGGIAKGYAADRAIDIYKGGGVKSASINLGGNVSVIGEKPDGKSWCIGVQNPLKKRGEIIGAISVKNKSVVTSGSYVRYFEKDNIKYHHIIDPKTGYPAKEELLSVTVIFENSMLCDAVSTAAFIAGADGGIELVKRFRDVEAIFITKDRKVIITKGIAKSFSLVEESGFQYL"
  soluble on expression in E. coli: "not soluble"

====

Experiment: soluble on expression in E. coli; label from the status in PepcDB or PDB records
experimental.readout: soluble on expression in E. coli

- seq: "MVRKQKRARLIYNPTSGQEIMKKNVAEVLDILESFGYETSAFQTTPRADSAKNEAARASQAGFDLVIAAGGDGTINEVVSGIAPLKRRPKVAIIPTGTTNDFARALKIPRGNPVEATKLIGKNQTIHMDIGRAYNDKYFINIAAAGSLTELTYSVPSQLKTMFGYLAYLVKGAELLPRVRNVPVKVFYDHGVFEGEASMIFVALTNSVGGFETIAPDAKLDDGKFTLILVKTANLFELTDLIRLVLTGGRHINHKKIEYIKTSYLKIIPQGNPPKRMMINLDGEYGGDAPIELRNLKNHIEFFANTDEISDDAITLDTEELVLEAIAQKFAREAESLDEMDKTKEQD"
  experimental.readout: "soluble on expression in E. coli"
  value.measured: "soluble"
- seq: "MGSDKIHHHHHHMNPELLQKYIAGNATEAEKQRVTEWIQENPENMREYMAQRKLHDMALWRTEPVAEENSRERKHFSLRGVCMEAAKIAAVLAIVLLGTHYWTGKHQVPEDKTWQSIYVPAGQRAELMLADGTKVWLNSRSTLTFPGSFKGNIRNVKLDGEGYFAVTKNVEQPFIVETNKCNVKVLGTEFNVMAYAADSVWETSLLEGAVEILVPGSNNSGMRLEPNMMASLKGNRLVKGRIKEVDYFLWREGLLCFNDISVRDMIEKLKLYYGVDIVVNNTRILKNRYTGKFRTKDGVEHVLKVLRLNNKFTYTKDDETNVITIN"
  experimental.readout: "soluble on expression in E. coli"
  value.measured: "not soluble"
- seq: "MGSDKIHHHHHHMKRPPKKPATDRSFVVALSRGLEVLRAFGPNDGLLGNQELAARTKLPKPTISRLTYTLTKLGYLTQVPRFEKYQLAPAAMSLGYAALANLGVRHLSQPYRDELMQQTGGAVAVGARDRISMIYVGQARSSLTVGVQLDVGSRIPIATTAMGRAYLCALQSEERAVLMKEMREYYGSRWPRIKEGIERSEEMVAKHGFAISVGEWQDDVHAAGVALTLNDGTGPYAFNCGAPAFRFTEERLINDIGPRLVAMVRKIEAALGGVAAPQPRKSDNKRTKGGKVARVVEGIR"
  experimental.readout: "soluble on expression in E. coli"
  value.measured: "not soluble"
- seq: "IPLFSDAEIKPNHATRTTQVGMPLAISVDDYSQLAFVLTQSGEIQYLSMDAPDKPAIYTQQLATNPVSFSQSAPGLGWYGLVDDQGLAHIFKPEFNATLRENTRPPEVVALSTDMNLTLTDAQDPVTQFVFSASTQTPTIVWQTRSGKVKARWQEKSALGVAPTTIDFSFSAGFDAPQQMLLTPDGETLYLRDGSELIVLTKAAQKFTVREVIDLTQGDKKHSVRTIDLLAGAYSLLVTHNDGRVSQWFDTLQNDKRTLTHIRDFKLASELKYLLPDSHRKGFYSFYTNGTLQSHYTTSEKLVLFKRAYKQAPAMAAMSNNERYLITWNDDSLKVAEVDNSYPEVSLSSLWQKVWYEGYPEPEFVWQSTSASDNFEAKFSLVPIAFGTIKAA"
  experimental.readout: "soluble on expression in E. coli"
  value.measured: "not soluble"

Attention now turns to another entry.
Consider the sequence `MKNEVKFMSEVIKVVDVKIFPHRYLKAETTEKVLNEIYDLDGIVRVIVHGQPLPKTVPFGPARGLPVNHQDRKVIKVKGEEMELRVKVGEIIITVEGEKLEKIMDGIEEICKRNFPFGYDIYVGAFTKIKPTVTDYMKYGDISSIDPRLIGMVDASARLKDSVKMIKLEHHHHHH` and give its measured soluble on expression in E. coli.
soluble

====

Experiment: soluble on expression in E. coli; label from the status in PepcDB or PDB records
experimental.readout: soluble on expression in E. coli

Please review the entries below; each comes with its answer.
- seq: "MPKDELPNHNCIKHLRSVVQQQQSRIAELEKTRAEHKHQLAEQKRDIQLLKAYMRAIRSVNPNLQNLEETIEYNEILEWVNSLQPARVTRWGGMISTPDAVLQAVIKRSLVESGCPASIVNELIENAHERSWPQGLATLETRQMNRRYYENYVAKRIPGKQAVVVMACENQHMGDDMVQEPGLVMIFAHGVEEI"
  value.measured: "not soluble"
- seq: "MSEKLKIVYRPLQELSPYAHNARTHSTEQVAQLVESIKQFGWTNPVLIDEKGEIIAGHGRVMAAEMLKMDSVPVIVLSGLTDEQKQR"
  value.measured: "soluble"
- seq: "QILSIDPLDISQNLAAVNKSLSDALQHLAQSDTYLSAI"
  value.measured: "soluble"
- seq: "MGSDKIHHHHHHMALYKTESGEIHLVRDICPHRGVPLTKGWVDGEEIVCPYHGLRYNTEGKCTQIPAQPELTKISDRFSLTKFPVVQRYGLIWTSIHGRDVTQANIPVLDTWDDAEHQAILPPFVDIGGSSGRQLEGFIDVAHFAWVHHNAFANRDNPIVPKYHTERTNYGLKTVYISNVSNYPHELKHLEPEGFLWKRTFEVYPPFSAVLTVDFPEGGILKILNACCPISSNKTRLFVPLTRNFDQTGDLEKVYAFNAQIFAEDQDMVESQKPEELPLDLMMEAHFEADRSSTTYRRILAEWGLSKRYTV"
  value.measured: "not soluble"
- seq: "MGSDKIHHHHHHMAKGLFDRYIWLIDTIYRAGKITFEEINKRWLRTEMSNGEEIPLRTFHNHRKAIETMFDINIECNKRAGYYYYIENADDIDKDKIKKWLLNTFAINNLANESHRLKQRILFEDIPSGKQYLSSIIEAMLENRIIEITYQSYWKEEANTFTIEPFCVKVFKQRWYIIARSPYYDTIMIYALDRIQNLQVTDITFNYPSDFDPQSYFEFSFGIVVDEICNIDKIRIKVYGKKCQYIKALPLHHSQSEVETTKSYSIFEYLLKPTYDFCQELLSHGDEIEVLSPTSLKEQIKEIVKNMSRYYN"
  value.measured: "not soluble"

Please state, for each entry, its recorded soluble on expression in E. coli.
1. MEEARLLVTCPDRPGIVAAVSGFLYAHGANITDLQQHSTDPEGGTFFMRVAFTASHLDLARPALERAFQEVVASRFQMQWRLAYASERKRTAILVSKPAHALLELLWRYRVGELPMELRLVISNHPDHREEVERFGIPYHHVPVEKGRKEEAEERILALLEAEGVELVVLARYMQILSPGFVERFPMRIINIHHSFLPAFAGADPYRQAYERGVKLIGATAHYVTEELDQGPIIEQDVVRVSHRHSVREMKRLGRELERTVLARAVRWHLEDRILVHENRTVVFV
2. MSLKVAVVGLGDISHVHIHAIQNSTKAQLVAVCDENEKLSQQVPHVNYYNDLQTMIDSETLDCVHICLPHYLHVSATTTCVENGINVLQEKPLAVNAKEGLELVKLQRKYPNIKIGICFQNRYNATFQALQEIVESKTYGEVIGVKGLVTWFRPESYYTDKPWRGQMATAGGGVLINQSIHTLDLIQLLCGKIASIKGTVSQLLDYDIEVEDTASAHIKFENKANGMFFATNANFGNSNVELQIIFENEKFTIKDNILTRFNEAGEKIKIAEDEKMTGNKTYYGPSHGKLINAFYDCINNDSNNYVHPKDALTSIAMIDAIQKSSESLKTVQFDSEGHHHHHH

1. soluble
2. soluble

====

Assay: soluble on expression in E. coli; label from the status in PepcDB or PDB records

- seq: "GKRLGIFTHDNPDPDSMSSAYALREIAKQFDVIADILYYGEILHQKNRAMVNLLEIPMIRAPEVDLSHYDAFAIVDSSGPGVNNSIPPDIDISIVIDHHPAEKVVAEFVDLREDVGATATILTEYIKELKITPSKILATALFFGIKSETDEFKRNTRTADFLACAFLYPFVDQDLIEKIESPSI"
  soluble on expression in E. coli: "not soluble"
- seq: "MKRVGKQTWVFDEDIYIRAAATAVGPLEADGPLGGYFDIWHRDLYCGEETWELAERRLMSEAVARCLQKAGVSAHDVDLFLAGDLLNQNATSNYVARELPIPFLCLFGACSTSMQTLAAAAAFVAGGLADTALVATSSHNATAERQFRYPTELGVQKPKTATFTVTGAGAALVGRTPGRWRIRAATIGKVIDAGLTNPLDMGAAMAPAAADTIEQHFRDLGTSPSDYDLIVTGDLSRVGSVIVRELLAESGYDISDVYNDCGLMIYRPDQKVFAGGSGCACSAVVTYGYLFHELDRGTFHRLFVVATGALLSQTMVQQKQSIPAVAHGVVIEAAKLEHHHHHH"
  soluble on expression in E. coli: "not soluble"
